- assay.target: FAK FAT domain (paxillin-FAT binding) (Homo sapiens, UniProt Q05397)
- Construct: FP Buffer containing 20 μM FAT and 0.1 μM TAMRA-LD2
- Sequence (Q05397 914-1045 limits assumed): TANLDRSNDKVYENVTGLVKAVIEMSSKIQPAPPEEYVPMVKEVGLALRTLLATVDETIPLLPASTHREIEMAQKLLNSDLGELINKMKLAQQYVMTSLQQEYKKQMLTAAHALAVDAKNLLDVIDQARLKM
- assay.explanation: Competition fluorescence polarization (FP) assay, inhibition of TAMRA-LD2 binding to FAT
- test.settings: read-out: FP Ki
Positions of bridges follow the written chain, without caps; N, C: chain ends. Non-standard residues stand in square brackets, D forms with d. Residues, ends and D or L forms follow the SMILES beside them. R8 = C=CCCCCCC[C@@](C)(N)C(=O)O; R5 = C=CCCC[C@@](C)(N)C(=O)O; S5 = C=CCCC[C@](C)(N)C(=O)O
result.type: log10 Ki (log10 of the value in µM)

• CC(=O)N[C@@H](CC(N)=O)C(=O)N[C@]1(C)CCCC=CCCC[C@@](C)(C(=O)N[C@@H](CC(=O)O)C(=O)N[C@@H](CCCNC(=N)N)C(=O)N[C@@H](CC(C)C)C(=O)N[C@@H](CC(C)C)C(=O)N[C@@H](CC(C)C)C(=O)N[C@@H](CCC(=O)O)C(=O)N[C@@H](CC(C)C)C(=O)N[C@@H](CC(N)=O)C(N)=O)NC(=O)[C@H](CCC(=O)O)NC(=O)[C@H](CO)NC1=O [Peptide 2024] (Ac-N[R5]SE[S5]DRLLLELN-NH2; staple 2-5) = 2.61
• CC(=O)N[C@@H](CC(=O)O)C(=O)N[C@@H](CC(C)C)C(=O)N[C@]1(C)CCCCCCC=CCCC[C@@](C)(C(=O)N[C@@H](CCC(=O)O)C(=O)N[C@@H](CC(C)C)C(=O)N[C@@H](CC(=O)O)C(N)=O)NC(=O)[C@H](CC(C)C)NC(=O)[C@H](CC(C)C)NC(=O)[C@H](CCCNC(=N)N)NC(=O)[C@H](CC(=O)O)NC(=O)[C@H](CC(C)C)NC(=O)[C@H](CCC(=O)O)NC1=O [Peptide 1913, Ac-DLR8ELDRLLS5ELD-NH2] (Ac-DL[R8]ELDRLL[S5]ELD-NH2; staple 3-10) = 1.34
• CC(=O)N[C@@H](CC(N)=O)C(=O)N[C@@H](CC(C)C)C(=O)N[C@]1(C)CCCCCCC=CCCC[C@@](C)(C(=O)N[C@@H](CCC(=O)O)C(=O)N[C@@H](CC(C)C)C(=O)N[C@@H](CC(N)=O)C(N)=O)NC(=O)[C@H](Cc2c[nH]c3ccccc23)NC(=O)[C@H](CC(C)C)NC(=O)[C@H](CCCNC(=N)N)NC(=O)[C@H](CC(=O)O)NC(=O)[C@H](CC(C)C)NC(=O)[C@H](CCC(=O)O)NC1=O [Peptide 2007, Ac-NLR8ELDRLWS5ELN-NH2] (Ac-NL[R8]ELDRLW[S5]ELN-NH2; staple 3-10) = 2.28
• CC(=O)N[C@@H](CC(N)=O)C(=O)N[C@]1(C)CCCCCCC=CCCC[C@@](C)(C(=O)N[C@@H](CC(C)C)C(=O)N[C@@H](CCC(=O)O)C(=O)N[C@@H](CC(C)C)C(=O)N[C@@H](CC(N)=O)C(N)=O)NC(=O)[C@H](CC(C)C)NC(=O)[C@H](CCCNC(=N)N)NC(=O)[C@H](CC(=O)O)NC(=O)[C@H](CC(C)C)NC(=O)[C@H](CCC(=O)O)NC(=O)[C@H](CO)NC1=O [Peptide 2017, Ac-NR8SELDRLS5LELN-NH2] (Ac-N[R8]SELDRL[S5]LELN-NH2; staple 2-9) = 1.91
• CC(=O)N[C@@H](CC(N)=O)C(=O)N[C@@H](CC(C)C)C(=O)N[C@]1(C)CCCCCCC=CCCC[C@@](C)(C(=O)N[C@@H](CCC(=O)O)C(=O)N[C@@H](Cc2c[nH]c3ccccc23)C(=O)N[C@@H](CC(N)=O)C(N)=O)NC(=O)[C@H](CC(C)C)NC(=O)[C@H](CC(C)C)NC(=O)[C@H](CCCNC(=N)N)NC(=O)[C@H](CC(=O)O)NC(=O)[C@H](Cc2c[nH]c3ccccc23)NC(=O)[C@H](CCC(=O)O)NC1=O [Peptide 1933, Ac-NLR8EWDRLLS5EWN-NH2] (Ac-NL[R8]EWDRLL[S5]EWN-NH2; staple 3-10) = 2.45
• CC(=O)N[C@@H](CC(N)=O)C(=O)N[C@@H](CC(C)C)C(=O)N[C@@H](CO)C(=O)N[C@@H](CCC(=O)O)C(=O)N[C@@]1(C)CCCC=CCCC[C@@](C)(C(=O)N[C@@H](CC(C)C)C(=O)N[C@@H](CCC(=O)O)C(=O)N[C@@H](CC(C)C)C(=O)N[C@@H](CC(N)=O)C(N)=O)NC(=O)[C@H](CC(C)C)NC(=O)[C@H](CCCNC(=N)N)NC(=O)[C@H](CC(=O)O)NC1=O [Peptide 1919, Ac-NLSES5DRLS5LELN-NH2] (Ac-NLSE[S5]DRL[S5]LELN-NH2; staple 5-9) = 1.59

Numbers sourced from patent US20260265304A1.
